Hello, the source for this data is patent US12371454B2, in case you need it.

EXPERIMENTAL TARGET: Kras and SOS1 (biotin-tagged human Kras loaded with GDP, His-tagged human SOS1) (Homo sapiens, UniProt P01116, G12D)
Construct: made in house; host or cells: E. coli (stated for Kras only)
Sequence (P01116 1-188 isoform P01116-2 G12D): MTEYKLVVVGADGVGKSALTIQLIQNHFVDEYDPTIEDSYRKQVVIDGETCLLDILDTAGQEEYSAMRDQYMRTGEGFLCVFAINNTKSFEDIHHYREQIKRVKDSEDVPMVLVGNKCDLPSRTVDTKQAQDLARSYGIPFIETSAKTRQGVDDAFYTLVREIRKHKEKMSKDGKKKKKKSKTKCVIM
ASSAY METHOD TEXT: Protein-protein interaction inhibition between Kras and SOS1 (KrasGl2D-SOS PPI) using AlphaScreen
Assay type: binding
SETUP CONDITIONS: AlphaScreen; biotin-tagged human Kras loaded with GDP, His-tagged human SOS1; read-out: KRAS G12D-SOS PPI IC50
Positions of bridges follow the written chain, without caps; N, C: chain ends. Non-standard residues stand in square brackets, D forms with d. Residues, ends and D or L forms follow the SMILES beside them. *: point of attachment. hPhe(3-Cl-4-CF3) = N[C@@H](CCc1ccc(C(F)(F)F)c(Cl)c1)C(=O)O; NMePhe(4-CF3) = CN[C@@H](Cc1ccc(C(F)(F)F)cc1)C(=O)O; NMePhe(4-Me) = CN[C@@H](Cc1ccc(C)cc1)C(=O)O; NMeGly(cPent) = CN[C@H](C(=O)O)C1CCCC1; Phe(3-I) = N[C@@H](Cc1cccc(I)c1)C(=O)O; NMeY = CN[C@@H](Cc1ccc(O)cc1)C(=O)O; NMeCha = CN[C@@H](CC1CCCCC1)C(=O)O; NEtLeu = CCN[C@@H](CC(C)C)C(=O)O; NMeChg = CN[C@H](C(=O)O)C1CCCCC1; NMeI = CC[C@H](C)[C@H](NC)C(=O)O; NMeD = CN[C@@H](CC(=O)O)C(=O)O; NMeL = CN[C@@H](CC(C)C)C(=O)O; Cba = N[C@@H](CC1CCC1)C(=O)O; Chg = N[C@H](C(=O)O)C1CCCCC1; NMeV = CN[C@H](C(=O)O)C(C)C; d(β3hA) = C[C@@H](N)CC(=O)O; Morpholide = C1CN(*)CCO1; NMeA = CN[C@@H](C)C(=O)O; NMeAib = CNC(C)(C)C(=O)O; Piperidide = C1CCN(*)CC1; Pra = C#CC[C@H](N)C(=O)O; Pyrrolidide = C1CCN(*)C1; Ac5c = NC1(C(=O)O)CCCC1; Aze = O=C(O)[C@@H]1CCN1; Sar = CNCC(=O)O
OUTCOME MEASURE: IC50 (nM)
Answer with a number only, understood to be in nM.

// solved cases for IC50 follow
| MOLECULE | OBSERVED RESULT |
| --- | --- |
| CC[C@H](C)[C@@H]1NC(=O)[C@H](CC(C)C)N(C)C(=O)C[C@@H](C(=O)N2CCCCC2)N(C)C(=O)[C@H](C2CCCCC2)N(C)C(=O)C2(CCCC2)NC(=O)[C@@H]2CCCN2C(=O)[C@H](CCc2ccc(C(F)(F)F)c(Cl)c2)NC(=O)CN(C)C(=O)[C@H]([C@@H](C)CC)N(C)C(=O)CN(C)C(=O)CN(C)C1=O [Compound 1686] ([NMeL]I[Sar][Sar][NMeI][Sar][hPhe(3-Cl-4-CF3)]P[Ac5c][NMeChg][NMeD]-Piperidide; lactam N-11) | 1.5 |
| CC(C)C[C@H]1C(=O)N[C@@H](C(C)C)C(=O)N(C)CC(=O)N(C)CC(=O)N(C)[C@@H](CC2CCCCC2)C(=O)N(C)CC(=O)N[C@@H](CCc2ccc(C(F)(F)F)c(Cl)c2)C(=O)N2CCC[C@H]2C(=O)NC2(CCCC2)C(=O)N(C)[C@@H](C2CCCCC2)C(=O)N(C)[C@H](C(=O)N2CCOCC2)CC(=O)N1C [Compound 1908] ([NMeL]V[Sar][Sar][NMeCha][Sar][hPhe(3-Cl-4-CF3)]P[Ac5c][NMeChg][NMeD]-Morpholide; lactam N-11) | 0.65 |
| CC[C@H](C)[C@@H]1NC(=O)[C@H](CC(C)C)N(C)C(=O)C[C@@H](C(=O)N2CCCCC2)N(C)C(=O)[C@H](C(C)C)N(C)C(=O)C2(CCCC2)NC(=O)[C@@H]2CCCN2C(=O)[C@H](CCc2ccc(C(F)(F)F)c(Cl)c2)NC(=O)CN(C)C(=O)[C@H](Cc2ccc(C(F)(F)F)cc2)N(C)C(=O)CN(C)C(=O)CN(C)C1=O [Compound 1629] ([NMeL]I[Sar][Sar][NMePhe(4-CF3)][Sar][hPhe(3-Cl-4-CF3)]P[Ac5c][NMeV][NMeD]-Piperidide; lactam N-11) | 2.5 |

Request: Quick one: IC50 for CC(C)C[C@H]1C(=O)N[C@@H](C2CCCCC2)C(=O)N(C)CC(=O)N(C)CC(=O)N(C)[C@@H](CC2CCCCC2)C(=O)N(C)CC(=O)N[C@@H](CCc2ccc(C(F)(F)F)c(Cl)c2)C(=O)N2CCC[C@H]2C(=O)NC2(CCCC2)C(=O)N(C)[C@@H](C2CCCCC2)C(=O)N(C)[C@H](C(=O)N2CCCCC2)CC(=O)N1C [Compound 552] ([NMeL][Chg][Sar][Sar][NMeCha][Sar][hPhe(3-Cl-4-CF3)]P[Ac5c][NMeChg][NMeD]-Piperidide; lactam N-11) ?
Response: 0.63

Request: Fill in: IC50 of CC[C@H](C)[C@@H]1NC(=O)[C@H](CC(C)C)N(CC)C(=O)C[C@@H](C(=O)N2CCCCC2)N(C)C(=O)[C@H](C2CCCCC2)N(C)C(=O)C2(CCCC2)NC(=O)[C@@H]2CCCN2C(=O)[C@H](CCc2ccc(C(F)(F)F)c(Cl)c2)NC(=O)CN(C)C(=O)[C@H](CC2CCCCC2)N(C)C(=O)CN(C)C(=O)CN(C)C1=O [Compound 137] ([NEtLeu]I[Sar][Sar][NMeCha][Sar][hPhe(3-Cl-4-CF3)]P[Ac5c][NMeChg][NMeD]-Piperidide; lactam N-11) is ___
Response: 0.76

Request: Find the recorded IC50 belonging to CC(C)C[C@H]1C(=O)N[C@@H](CC2CCC2)C(=O)N(C)CC(=O)N(C)CC(=O)N(C)[C@@H](CC2CCCCC2)C(=O)N(C)CC(=O)N[C@@H](CCc2ccc(C(F)(F)F)c(Cl)c2)C(=O)N2CCC[C@H]2C(=O)NC2(CCCC2)C(=O)N(C)[C@@H](C2CCCCC2)C(=O)N(C)[C@H](C(=O)N2CCCCC2)CC(=O)N1C [Compound 1759] ([NMeL][Cba][Sar][Sar][NMeCha][Sar][hPhe(3-Cl-4-CF3)]P[Ac5c][NMeChg][NMeD]-Piperidide; lactam N-11) and report it.
Response: 2.7

Request: What value of IC50 has been reported for the following molecule? CC[C@H](C)[C@@H]1NC(=O)[C@H](CC(C)C)N(C)C(=O)C[C@@H](C(=O)N2CCCC2)N(C)C(=O)[C@H](C(C)C)N(C)C(=O)C2(CCCC2)NC(=O)[C@@H]2CCCN2C(=O)[C@H](CCc2ccc(C(F)(F)F)c(Cl)c2)NC(=O)CN(C)C(=O)[C@H](CC2CCCCC2)N(C)C(=O)CN(C)C(=O)CN(C)C1=O [Compound 1711] ([NMeL]I[Sar][Sar][NMeCha][Sar][hPhe(3-Cl-4-CF3)]P[Ac5c][NMeV][NMeD]-Pyrrolidide; lactam N-11)
Response: 0.78

Request: Please report the recorded IC50 for C#CC[C@@H]1NC(=O)[C@H](Cc2cccc(I)c2)NC(=O)CN(C)C(=O)[C@H](Cc2ccc(OC)cc2)N(C)C(=O)[C@@H]2CCN2C(=O)[C@H](C)N(C)C(=O)[C@H]([C@@H](C)CC)NC(=O)[C@H](CC(C)C)N(C)C(=O)C[C@@H](C(=O)N2CCCCC2)N(C)C(=O)[C@H](CC(C)C)NC(=O)C(C)(C)N(C)C1=O [Compound 1350] ([NMeL]I[NMeA][Aze][NMeY](Me)[Sar][Phe(3-I)][Pra][NMeAib]L[NMeD]-Piperidide; lactam N-11) .
Response: 17

Request: Entry CC[C@H](C)[C@@H]1NC(=O)[C@H](C)N(C)C(=O)C[C@@H](C)NC(=O)[C@H](C2CCCC2)N(C)C(=O)C2(CCCC2)NC(=O)[C@@H]2CCCN2C(=O)[C@H](CCc2ccc(C(F)(F)F)c(Cl)c2)NC(=O)[C@H]2CCCN2C(=O)[C@H](Cc2ccc(C)cc2)N(C)C(=O)[C@@H]2CCN2C(=O)CN(C)C1=O [Compound 1494] (cyclo([Ac5c][NMeGly(cPent)][d(β3hA)][NMeA]I[Sar][Aze][NMePhe(4-Me)][dP][hPhe(3-Cl-4-CF3)]P)) has what IC50?
Response: 140
